- Test System: NF-kB p50/p50 homodimer (NFKB1) (Homo sapiens, UniProt P19838 P19838:1-433)
- Sequence (P19838 1-433, one chain of several): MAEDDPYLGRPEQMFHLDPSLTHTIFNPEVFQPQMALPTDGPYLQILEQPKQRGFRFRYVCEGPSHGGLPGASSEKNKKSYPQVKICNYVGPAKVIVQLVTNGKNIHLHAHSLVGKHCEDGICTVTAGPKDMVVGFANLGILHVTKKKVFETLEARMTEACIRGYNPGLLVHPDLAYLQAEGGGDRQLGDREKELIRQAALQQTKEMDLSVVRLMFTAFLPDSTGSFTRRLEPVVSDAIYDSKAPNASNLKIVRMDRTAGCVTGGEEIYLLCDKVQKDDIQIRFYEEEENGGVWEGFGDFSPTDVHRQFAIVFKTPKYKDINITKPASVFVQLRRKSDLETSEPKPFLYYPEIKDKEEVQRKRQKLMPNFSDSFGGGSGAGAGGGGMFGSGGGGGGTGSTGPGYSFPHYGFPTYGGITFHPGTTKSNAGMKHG
- Test: EMSA; competition vs 32P 113/114 probe
- Conditions Used: protein: extract; tags: none; nuclear extract of LPS-stimulated THP-1 cells; chain copies: 2 (stated homodimer)
Kindly state IC50 for each of the entries shown.
One number for each entry, in fold molar excess.

{"Binder": "decoy 197 C-W (dsDNA) DNA 1: CTCGGGGACTTTCCCTGT DNA 2: ACAGGGAAAGTCCCCGAG", "Uom": "fold molar excess", "IC50": 17.5}
{"Binder": "decoy 155 E-V (dsDNA) DNA 1: TCGGACTTTCCTC DNA 2: GAGGAAAGTCCGA", "Uom": "fold molar excess", "IC50": 97}

For every item in the list below, what is its measured IC50?
1. decoy 309 M-T (dsDNA) DNA 1: CCTTGAAGGGATTTCCCTCC DNA 2: GGAGGGAAATCCCTTCAAGG
2. decoy 145 A-Z (dsDNA) DNA 1: AGTTGAGGGACTTTCCAGGC DNA 2: GCCTGGAAAGTCCCTCAACT

[50, 8]

Please report IC50 for every entry that follows.
1. decoy 279 E-Z A->C EVEN (dsDNA) DNA 1: TTGCGGACTTTCCAGGC DNA 2: GCCTGGAAAGTCCGCAA
2. decoy 151 D-Z (dsDNA) DNA 1: AGTTGAGGGATTTCCAGGC DNA 2: GCCTGGAAATCCCTCAACT

[52, 69]

Taken from patent US20070078102A1.
